Reference source for all entries: ChEMBL document CHEMBL3608272

# System: A549
# procedure-summary: Anti-proliferative activity against human A549 cells incubated for 48 hrs by SRB assay
# Format: functional
# test-settings: A549, 48 h
Doc: threshold 10 µM (exclusive). Items with GI50 beneath it return label 1; others return label 0.

{"columns": ["entry-smiles", "assay-system", "assigned-category"],
 "data": [
  ["CN1C(=O)C(c2ccc(CO)cc2)=C(c2ccccc2)C12C=CC(=O)C=C2", "A549", "label 0"],
  ["CN1C(=O)C(c2ccccc2)=C(c2ccccc2)C12C=CC(=O)C=C2", "A549", "label 0"],
  ["O=C1C=CC2(C=C1)OC(=O)C(c1ccc([N+](=O)[O-])cc1)=C2c1ccccc1", "A549", "label 1"],
  ["CN1C(=O)C(c2ccc3c(c2)OCO3)=C(c2ccccc2)C12C=CC(=O)C=C2", "A549", "label 0"],
  ["O=C1C=CC2(C=C1)OC(=O)C(c1ccc(CO)cc1)=C2c1ccccc1", "A549", "label 1"],
  ["O=C1C=CC2(C=C1)OC(=O)C(c1ccc(C(=O)O)cc1)=C2c1ccccc1", "A549", "label 1"],
  ["COC(=O)/C=C/C1=C(c2ccccc2)C2(C=CC(=O)C=C2)OC1=O", "A549", "label 1"],
  ["CN1C(=O)C(c2ccc(C=O)cc2)=C(c2ccccc2)C12C=CC(=O)C=C2", "A549", "label 0"],
  ["CN1C(=O)C(c2cccc3ccccc23)=C(c2ccccc2)C12C=CC(=O)C=C2", "A549", "label 0"],
  ["COc1ccc(C2=C(c3ccccc3)C3(C=CC(=O)C=C3)N(C)C2=O)c(OC)c1", "A549", "label 0"]
]}

###

Known GI50 of a selection of molecules
# Test system: A549
# procedure-summary: Anti-proliferative activity against human A549 cells incubated for 48 hrs by SRB assay
# Format: functional
# test-settings: A549, 48 h
test-readout: GI50 (µM)

{"columns": ["entry-smiles", "units", "recorded-value"],
 "data": [
  ["CN1C(=O)C(c2ccoc2)=C(c2ccccc2)C12C=CC(=O)C=C2", "µM", 126],
  ["COc1ccc(F)cc1C1=C(c2ccccc2)C2(C=CC(=O)C=C2)OC1=O", "µM", 4.6],
  ["CN1C(=O)C(c2ccc(C=O)s2)=C(c2ccccc2)C12C=CC(=O)C=C2", "µM", 16.6],
  ["O=Cc1ccc(C2=C(c3ccccc3)C3(C=CC(=O)C=C3)OC2=O)s1", "µM", 4.6],
  ["COc1cccc2c1C(=O)c1c(O)c3c(c(O)c1C2=O)C[C@@](O)(C(=O)CO)C[C@@H]3O[C@H]1C[C@H](N)[C@H](O)[C@H](C)O1", "µM", 1.9],
  ["COc1ccc(C2=C(c3ccccc3)C3(C=CC(=O)C=C3)N(C)C2=O)cc1", "µM", 98],
  ["CN1C(=O)C(c2cccc(Cl)c2Cl)=C(c2ccccc2)C12C=CC(=O)C=C2", "µM", 27.6],
  ["CN1C(=O)C(c2ccc(C#N)cc2)=C(c2ccccc2)C12C=CC(=O)C=C2", "µM", 25.4],
  ["O=C1C=CC2(C=C1)OC(=O)C(c1ccc(O)cc1)=C2c1ccccc1", "µM", 6.2]
]}
